Readings of IC50 for the listed compounds
# Tested on: HPV18
# METHOD DESCRIPTION: HPV18 DNA levels in keratinocytes by real-time PCR
# Format: cell-based, Human papilloma virus
# CONDITIONS USED: effective (pseudo) IC50

COMPOUND	ASSAYED SYSTEM	IC50
CN(CCCN)CCCNC(=O)c1cc(NC(=O)c2cc(NC(=O)c3cc(NC(=O)c4cc(NC(=O)c5cc(NC(=O)CCNC(=O)c6cc(NC(=O)c7cc(NC(=O)CCCNC(=O)c8cc(NC(=O)c9cc(NC(=O)c%10cc(NC(=O)CCNC(=O)c%11cc(NC(=O)c%12cc(NC(=O)c%13nccn%13C)cn%12C)cn%11C)cn%10C)cn9C)cn8C)cn7C)cn6C)cn5C)cn4C)cn3C)cn2C)cn1C [Polyamide 1069, ImPPβPPPγPPβPPPPPTa]	HPV18	≥ 1000 nM

For the next question, use this compound.
Q. Entry CN(C)CCCNC(=O)CCNC(=O)c1cc(NC(=O)c2cc(NC(=O)c3cc(NC(=O)CCNC(=O)c4cc(NC(=O)c5cc(NC(=O)c6cc(NC(=O)CCNC(=O)c7cc(NC(=O)c8cc(NC(=O)CCCNC(=O)c9cc(NC(=O)c%10cc(NC(=O)CCNC(=O)c%11nc(NC(=O)c%12cc(NC(=O)c%13cc(NC(=O)CCNC(=O)c%14cc(NC(=O)c%15cc(NC(=O)c%16nccn%16C)cn%15C)cn%14C)cn%13C)cn%12C)cn%11C)cn%10C)cn9C)cn8C)cn7C)cn6C)cn5C)cn4C)cn3C)cn2C)cn1C [Polyamide 1040, ImPPβPPIβPPγPPβPPPβPPPβDp] : reported IC50 = ?
A. 100 to 1000 nM
